Measured pEC50, listed per entry.
Test system: HCV 1b genotype
Assay: HCV Replicon assay (HCV 1b genotype)
Format: cell-based, Hepatitis C virus
Conditions: Hepatitis C virus; HCV 1b genotype replicon; class symbol; read-out: Range (EC50 values against HCV 1b)
pEC50: −log10 of the molar value.

Sample records with pEC50:
COC(=O)N[C@H](C(=O)N1CC(F)(F)C[C@H]1c1nc(-c2ccc(C#Cc3ccc(-c4c[nH]c([C@@H]5CC(F)(F)CN5C(=O)[C@@H](NC(=O)OC)C(C)C)n4)cc3)cc2)c[nH]1)C(C)C 10.00 to 11.70
COC(=O)N[C@H](C(=O)N1[C@@H]2C[C@@H]2C[C@H]1c1nc(-c2ccc(C#Cc3ccc(-c4c[nH]c([C@@H]5C[C@H]6C[C@H]6N5C(=O)[C@@H](NC(=O)OC)C5CCOCC5)n4)cc3)cc2)c[nH]1)C1CCOCC1 10.00 to 11.70
COC(=O)N[C@H](C(=O)N1[C@H](c2ncc(-c3ccc(C#Cc4ccc(-c5cnc([C@@H]6C[C@@H]7C[C@@H]7N6C(=O)[C@@H](NC(=O)OC)C(C)C)[nH]5)cc4)cc3)[nH]2)C[C@@H]2C[C@@H]21)C(C)C 6.46 to 8.00

// switching to the query compound
Prompt line: Lab note: HCV 1b genotype assay, enter pEC50 for COC(=O)N[C@H](C(=O)N1CCC[C@H]1c1nc(-c2ccc(C#Cc3ccc(-c4c[nH]c([C@@H]5CCCN5C(=O)[C@@H](NC(=O)OC)C5CCOCC5)n4)cc3)cc2)c[nH]1)C1CCOCC1 here
Response line: 10.00 to 11.70
